- System: UO-31
- protocol-notes: NCI single-dose growth inhibition screen
- Format: cell-based, human
- details: Homo sapiens, UO-31, Renal Cancer UO-31; single dose 10^−5 M
Please provide measured inhibition at 10 µM for the entries that follow.
API: value field is a number in %; no unit string.

Ask: State its inhibition at 10 µM on UO-31: `O=C(O)c1cn(C2CC2)c2cc(N3CCN(C(=O)CCCN4C(=O)SC(=Cc5cccc([N+](=O)[O-])c5)C4=O)CC3)c(F)cc2c1=O`
Result: 20.7

Ask: State its inhibition at 10 µM on UO-31: `O=C(O)c1cn(C2CC2)c2cc(N3CCN(C(=O)CCCN4C(=O)CSC4=O)CC3)c(F)cc2c1=O`
Result: 42

Ask: State its inhibition at 10 µM on UO-31: `O=C(O)c1cn(C2CC2)c2cc(N3CCN(C(=O)CCCN4C(=O)S/C(=C\c5ccc(F)cc5)C4=O)CC3)c(F)cc2c1=O`
Result: 21.7

Ask: State its inhibition at 10 µM on UO-31: `Cc1ccc(/C=C2\SC(=O)N(CCCC(=O)N3CCN(c4cc5c(cc4F)c(=O)c(C(=O)O)cn5C4CC4)CC3)C2=O)cc1`
Result: 16.5

Ask: State its inhibition at 10 µM on UO-31: `COc1ccc(/C=C2\SC(=O)N(CCCC(=O)N3CCN(c4cc5c(cc4F)c(=O)c(C(=O)O)cn5C4CC4)CC3)C2=O)cc1OC`
Result: 14.5

Ask: State its inhibition at 10 µM on UO-31: `COc1cc(/C=C2\SC(=O)N(CCCC(=O)N3CCN(c4cc5c(cc4F)c(=O)c(C(=O)O)cn5C4CC4)CC3)C2=O)cc(OC)c1OC`
Result: 1.5

Ask: State its inhibition at 10 µM on UO-31: `O=C(O)c1cn(C2CC2)c2cc(N3CCN(C(=O)CCCN4C(=O)SC(=Cc5cccc6ccccc56)C4=O)CC3)c(F)cc2c1=O`
Result: 48.1

* * *

- System: UACC-62
- protocol-notes: NCI single-dose growth inhibition screen
- Format: cell-based
- details: Homo sapiens; Melanoma UACC-62; single dose 10^−5 M
quantity-name: inhibition at 10 µM

Ask: State its inhibition at 10 µM on UACC-62: `COc1cc(/C=C2\SC(=O)N(CCCC(=O)N3CCN(c4cc5c(cc4F)c(=O)c(C(=O)O)cn5C4CC4)CC3)C2=O)cc(OC)c1OC`
Result: 3.7%

Ask: State its inhibition at 10 µM on UACC-62: `COc1ccc(/C=C2\SC(=O)N(CCCC(=O)N3CCN(c4cc5c(cc4F)c(=O)c(C(=O)O)cn5C4CC4)CC3)C2=O)cc1OC`
Result: 1.4%

Ask: State its inhibition at 10 µM on UACC-62: `O=C(O)c1cn(C2CC2)c2cc(N3CCN(C(=O)CCCN4C(=O)S/C(=C\c5ccc(F)cc5)C4=O)CC3)c(F)cc2c1=O`
Result: 19.3%

Ask: State its inhibition at 10 µM on UACC-62: `O=C(O)c1cn(C2CC2)c2cc(N3CCN(C(=O)CCCN4C(=O)S/C(=C\c5ccc([N+](=O)[O-])cc5)C4=O)CC3)c(F)cc2c1=O`
Result: 2%

Ask: State its inhibition at 10 µM on UACC-62: `O=C(O)c1cn(C2CC2)c2cc(N3CCN(C(=O)CCCN4C(=O)SC(=Cc5ccccc5)C4=O)CC3)c(F)cc2c1=O`
Result: 28.6%

Ask: State its inhibition at 10 µM on UACC-62: `COc1ccc(C=C2SC(=O)N(CCCC(=O)N3CCN(c4cc5c(cc4F)c(=O)c(C(=O)O)cn5C4CC4)CC3)C2=O)cc1`
Result: 7%

Ask: State its inhibition at 10 µM on UACC-62: `Cc1ccc(/C=C2\SC(=O)N(CCCC(=O)N3CCN(c4cc5c(cc4F)c(=O)c(C(=O)O)cn5C4CC4)CC3)C2=O)cc1`
Result: 4.2%

Ref: paper PMC11480511
